Experiment: 4 h main pharmacokinetic experiment in wild-type, Abcb1a/1b-/-, Abcg2-/- and Abcb1a/1b;Abcg2-/- mice
Format: in vivo
Conditions: male, FVB, mouse, small intestine contents, po, 10 mg/kg, male wild-type mice, 10 mg/kg oral, 4 h main experiment; read-out: CSIC (small intestine contents concentration)

{"compound": "COc1ccc(CN2C3CC2CN(c2ccc(-c4cc(OCC(C)(C)O)cn5ncc(C#N)c45)cn2)C3)cn1", "concentration at 4 h (ng/g)": 98100}

---

Assay: 4 h pharmacokinetic pilot study in wild-type, Abcb1a/1b;Abcg2-/- and Slco1a/1b-/- mice
Type: in vivo
Conditions: male, FVB background, wild-type, mouse, in vivo, po, 10 mg/kg, Ctestis
measured-quantity: concentration at 4 h (ng/g)

{"compound": "COc1ccc(CN2C3CC2CN(c2ccc(-c4cc(OCC(C)(C)O)cn5ncc(C#N)c45)cn2)C3)cn1", "measured-quantity": "concentration at 4 h", "experimental-value": 730}

---

Experiment: 4 h pharmacokinetic pilot study in wild-type, Abcb1a/1b;Abcg2-/- and Slco1a/1b-/- mice
Type: in vivo
Conditions: male, FVB (Slco1a/1b-/-), mouse, in vivo, po, 10 mg/kg, Cbrain
measured-quantity: concentration at 4 h (ng/g)

{"compound": "COc1ccc(CN2C3CC2CN(c2ccc(-c4cc(OCC(C)(C)O)cn5ncc(C#N)c45)cn2)C3)cn1", "experimental-value": 278}

---

Test: 4 h main pharmacokinetic experiment in wild-type, Abcb1a/1b-/-, Abcg2-/- and Abcb1a/1b;Abcg2-/- mice
Type: in vivo
Conditions: male, FVB, mouse, small intestine contents, po, 10 mg/kg, male Abcg2-/- mice, 10 mg/kg oral, 4 h main experiment; read-out: CSIC (small intestine contents concentration)

{"compound": "COc1ccc(CN2C3CC2CN(c2ccc(-c4cc(OCC(C)(C)O)cn5ncc(C#N)c45)cn2)C3)cn1", "concentration at 4 h [ng/g]": 91700}

---

Assay: 8 h pharmacokinetic study in wild-type, Cyp3a-/- and Cyp3aXAV mice
Settings: female, mouse, in vivo, po, 10 mg/kg, Cbrain

{"compound": "COc1ccc(CN2C3CC2CN(c2ccc(-c4cc(OCC(C)(C)O)cn5ncc(C#N)c45)cn2)C3)cn1", "concentration at 8 h": "51 ng/g"}

---

Test: 4 h main pharmacokinetic experiment in wild-type, Abcb1a/1b-/-, Abcg2-/- and Abcb1a/1b;Abcg2-/- mice
Type: in vivo
Conditions: male, FVB, mouse, testis, po, 10 mg/kg, male Abcg2-/- mice, 10 mg/kg oral, 4 h main experiment; read-out: Ctestis

{"compound": "COc1ccc(CN2C3CC2CN(c2ccc(-c4cc(OCC(C)(C)O)cn5ncc(C#N)c45)cn2)C3)cn1", "concentration at 4 h [ng/g]": 1050}

---

Test: 4 h main pharmacokinetic experiment in wild-type, Abcb1a/1b-/-, Abcg2-/- and Abcb1a/1b;Abcg2-/- mice
Assay type: in vivo
Conditions: male, FVB (Abcb1a/1b;Abcg2-/-), mouse, brain, po, 10 mg/kg, male Abcb1a/1b;Abcg2-/- mice, 10 mg/kg oral, 4 h main experiment; read-out: Cbrain

{"compound": "COc1ccc(CN2C3CC2CN(c2ccc(-c4cc(OCC(C)(C)O)cn5ncc(C#N)c45)cn2)C3)cn1 [selpercatinib]", "concentration at 4 h, ng/g": 4260}
